Reference for the values: BindingDB's records for doi:10.1021/jm9910371

Entries and their pKi values follow.
# targetEntity: Dimer of Gag-Pol polyprotein [501-599] (Human immunodeficiency virus 1)
# Construct: 501-599
# protocolDetails: Protease Inhibition Assay
# conditionContext: pH 5; 30 °C
# Description: Ki values were determined by using a fluorescent substrate (DABCYL-gamma-Abu-[…]EDANS). All incubations were performed at 30°C in 0.1 M sodium acetate 1 M NaCl 1 mM DTT 1 mM EDTA 3% DMSO (pH 5.0) by using 5 uM substrate and the indicated enzyme concentrations ([E]). The enzyme concentration (A280) was determined by absorption measurements.
pKi: −log10 of the molar value.

compound	pKi
CNC(=O)[C@@H](NC(=O)[C@H](OCc1ccccc1)[C@H](O)[C@@H](O)[C@@H](OCc1ccccc1)C(=O)N[C@H](C(=O)NC)C(C)C)C(C)C [1-Valine Methylamide deriv. 1]	9.40
CNC(=O)[C@@H](NC(=O)[C@H](OCc1ccc(C2CCCC(=O)C2=O)cc1)[C@H](O)[C@@H](O)[C@@H](OCc1ccc(C2CCCC(=O)C2=O)cc1)C(=O)N[C@H](C(=O)NC)C(C)C)C(C)C (some centres not stated)	9.52
